Target: 5-HT2B Receptors (Homo sapiens, UniProt P41595)
Construct: expressed in transfected cells
Sequence (P41595 whole entry): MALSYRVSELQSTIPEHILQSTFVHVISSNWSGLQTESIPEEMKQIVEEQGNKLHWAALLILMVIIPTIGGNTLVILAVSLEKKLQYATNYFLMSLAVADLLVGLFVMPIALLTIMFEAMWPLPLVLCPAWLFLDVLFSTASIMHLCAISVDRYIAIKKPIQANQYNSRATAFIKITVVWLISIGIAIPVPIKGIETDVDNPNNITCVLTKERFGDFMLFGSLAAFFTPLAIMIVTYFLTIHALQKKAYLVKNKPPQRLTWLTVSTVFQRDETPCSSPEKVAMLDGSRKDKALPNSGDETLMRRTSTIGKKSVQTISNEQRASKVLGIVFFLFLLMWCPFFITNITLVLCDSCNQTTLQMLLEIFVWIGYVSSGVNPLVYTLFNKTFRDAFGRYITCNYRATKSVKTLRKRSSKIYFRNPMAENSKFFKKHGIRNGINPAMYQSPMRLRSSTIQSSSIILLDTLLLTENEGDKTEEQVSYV
Assay: Antagonist activity assay (FLIPR, CHO-K1/5-HT2B stable cell line)
Type: cell-based
Details: 1 μM compound, CHO-K1/5-HT2B cells stimulated with 12 nM (EC80) 5-HT
value.type: inhibition at 1 µM (%)
Numbers only; they are read as %.

{"smiles": "CCOC(=O)c1cc(NC2=NC(N)=NC3(CCCCC3)N2)cc(Br)c1C", "inhibition at 1 µM, %": 92.8}
{"smiles": "Cc1ccc(NC2=NC(N)=NC3(CCCCC3)N2)cc1", "inhibition at 1 µM, %": 50.2}

State inhibition at 1 µM (5-HT2B Receptors (Homo sapiens, UniProt P41595)) of "CCNC(=O)c1cccc(NC2=NC(N)=NC3(CCCCC3)N2)c1" .
95.5

----------
Molecular target: 5-HT2B Receptors (Homo sapiens, UniProt P41595)
Construct: expressed in transfected cells
Assay: Antagonist activity assay (FLIPR, CHO-K1/5-HT2B stable cell line)
Type: cell-based
Settings: 1 μM compound, CHO-K1/5-HT2B cells stimulated with 12 nM (EC80) 5-HT
// values below are reported inhibition at 1 µM

{"compound": "CC1(C)N=C(N)N=C(Nc2ccc(Br)cc2)N1 [1-e]", "system.under.test": "5-HT2B Receptors (Homo sapiens, UniProt P41595)", "reading": "< 50%"}
{"compound": "NC1=NC2(CCCCC2)NC(Nc2ccccc2)=N1 [3-a]", "system.under.test": "5-HT2B Receptors (Homo sapiens, UniProt P41595)", "reading": "< 50%"}

State inhibition at 1 µM (5-HT2B Receptors (Homo sapiens, UniProt P41595)) of Cc1ccc(C)c(NC2=NC(N)=NC3(CCCC3)N2)c1 [2-c] .
< 50%

----------
Target: 5-HT2B Receptors (Homo sapiens)
Construct: expressed in transfected cells
Test: Antagonist activity assay (FLIPR, CHO-K1/5-HT2B stable cell line)
Type: cell-based
Conditions: 1 μM compound, CHO-K1/5-HT2B cells stimulated with 12 nM (EC80) 5-HT
// values below are reported inhibition at 1 µM

Please review the entries below; each comes with its answer.
{"compound": "NC1=NC2(CCCCC2)NC(Nc2cccc(Cl)c2)=N1 [3-e1]", "reading": "~95.5%"}
{"compound": "NC1=NC2(CCCCC2)NC(Nc2ccc(F)cc2F)=N1", "reading": "< 50%"}
{"compound": "COc1ccccc1NC1=NC(N)=NC(C)(C)N1", "reading": "< 50%"}
{"compound": "Cc1cccc(NC2=NC(N)=NC3(CCCC3)N2)c1", "reading": "< 50%"}
{"compound": "Cc1cccc(C)c1NC1=NC(N)=NC2(CCCC2)N1", "reading": "< 50%"}

Using the record for "NC1=NC2(CCCCC2)NC(Nc2ccc(F)c(F)c2)=N1" , state its measured inhibition at 1 µM.
66.5%

Using the record for "COc1cccc(NC2=NC(N)=NC3(CCCCC3)N2)c1" , state its measured inhibition at 1 µM.
84.6%

Using the record for "CCCC(=O)c1cccc(NC2=NC(N)=NC3(CCCCC3)N2)c1" , state its measured inhibition at 1 µM.
106%
